Hey, just so you know, these numbers are from patent US10392404B2.

Tested on: b-Raf (V600E) (Homo sapiens, UniProt P15056, V600E)
Sequence (P15056 whole entry V600E): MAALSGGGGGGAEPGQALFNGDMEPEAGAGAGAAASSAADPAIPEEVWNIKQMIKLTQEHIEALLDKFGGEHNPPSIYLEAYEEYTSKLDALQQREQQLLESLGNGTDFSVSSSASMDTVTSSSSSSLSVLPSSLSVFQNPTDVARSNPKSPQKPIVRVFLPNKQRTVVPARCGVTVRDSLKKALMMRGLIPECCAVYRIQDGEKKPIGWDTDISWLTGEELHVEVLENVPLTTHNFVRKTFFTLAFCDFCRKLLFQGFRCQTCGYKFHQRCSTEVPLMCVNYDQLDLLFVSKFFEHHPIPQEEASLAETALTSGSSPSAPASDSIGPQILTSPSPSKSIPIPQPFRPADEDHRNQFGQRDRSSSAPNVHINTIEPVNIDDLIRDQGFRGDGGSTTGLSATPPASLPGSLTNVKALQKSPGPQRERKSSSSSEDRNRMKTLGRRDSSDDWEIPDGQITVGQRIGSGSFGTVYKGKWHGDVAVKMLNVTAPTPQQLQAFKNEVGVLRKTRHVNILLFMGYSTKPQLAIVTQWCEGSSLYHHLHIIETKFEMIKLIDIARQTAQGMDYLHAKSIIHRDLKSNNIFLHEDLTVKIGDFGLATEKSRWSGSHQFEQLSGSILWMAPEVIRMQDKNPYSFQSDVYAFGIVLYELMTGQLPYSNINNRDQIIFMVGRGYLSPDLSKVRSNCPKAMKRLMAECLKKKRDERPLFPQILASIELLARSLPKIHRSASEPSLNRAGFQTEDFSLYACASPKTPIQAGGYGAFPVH
Experiment summary: In vitro Raf activity determination (Alpha Screen, biotinylated kinase-dead MEK1 substrate), B-Raf
Details: b-Raf (V600E) approximately 4 pM; ATP 10 μM; pre-incubation 60 minutes; reaction 3 hours at room temperature
Would you mind telling me the reported pIC50 of each entry?
Convention used: pIC50 is expressed as -log10 of the molar concentration.

Form field: pIC50 recorded for Cc1ccc(NC(=O)c2cccc(C(F)(F)F)c2)cc1-c1cncc(C#N)c1 with b-Raf (V600E) (Homo sapiens, UniProt P15056, V600E) (enter value)
8.41

Form field: pIC50 recorded for Cc1ccc(NC(=O)c2cccc(C(F)(F)F)c2)cc1-c1cc(C#N)c(N)nc1C with b-Raf (V600E) (Homo sapiens, UniProt P15056, V600E) (enter value)
7.78

Form field: pIC50 recorded for Cc1ncc(NC(=O)c2ccnc(C(F)F)c2)cc1-c1cnc(N2CCOCC2)c(C#N)c1 with b-Raf (V600E) (Homo sapiens, UniProt P15056, V600E) (enter value)
8.94

Form field: pIC50 recorded for COCCNc1ncc(-c2cc(NC(=O)c3cnnc(C(F)(F)F)c3)ccc2C)cc1C#N with b-Raf (V600E) (Homo sapiens, UniProt P15056, V600E) (enter value)
8.39

Form field: pIC50 recorded for Cc1ncc(NC(=O)c2ccnc(C(C)(C)O)c2)cc1-c1cnc(N(C)C)c(C#N)c1 with b-Raf (V600E) (Homo sapiens, UniProt P15056, V600E) (enter value)
7.74

Form field: pIC50 recorded for Cc1ccc(NC(=O)c2ccnc(C(C)(C)C#N)c2)cc1-c1cnc(NC(C)C)c(C#N)c1 with b-Raf (V600E) (Homo sapiens, UniProt P15056, V600E) (enter value)
8.78

Form field: pIC50 recorded for Cc1ncc(NC(=O)c2cc(C3CC3)nn2C)cc1-c1cnc(N(C)C)c(C#N)c1 with b-Raf (V600E) (Homo sapiens, UniProt P15056, V600E) (enter value)
6.39

Form field: pIC50 recorded for Cc1ncc(NC(=O)c2cccc(C(F)(F)F)c2)cc1-c1cnc(OCCO)c(C#N)c1 with b-Raf (V600E) (Homo sapiens, UniProt P15056, V600E) (enter value)
8.24
